Test system: PPC-1 cells
Assay procedure: MTT cell viability of PPC-1 cells treated with compound with or without CH-11 anti-FAS antibody
Format: cell-based
Reported conditions: PPC-1 cells with CH-11 100 ng/mL, MTT 24 hours; LD50 = concentration that reduces cell viability by 50%
Counter-ions that a name gives are not always drawn.
LD50 (μM) (PPCl, CH-11) by entry:
Quantity kind: LD50 (μM) (PPCl, CH-11) (µM)

INSERT INTO assay_data (molecule, value_units, value) VALUES
  ('CCn1c(=N)n(CC(=O)c2cc(C(C)(C)C)c(O)c(C(C)(C)C)c2)c2ccccc21 [compound 5569100, hydrobromide]', 'µM', 5.6),
  ('Br.Cc1ccc(Cn2c(=N)n(CC(=O)c3cc(C(C)(C)C)c(O)c(C(C)(C)C)c3)c3ccccc32)cc1 [compound 5651311]', 'µM', 9),
  ('O=C(Nc1ccc(Cl)c(C(F)(F)F)c1)c1cccs1', 'µM', 35);

====

Test system: PPC-1 cells
Assay procedure: MTT cell viability of PPC-1 cells treated with compound with or without CH-11 anti-FAS antibody
Format: cell-based
Reported conditions: PPC-1 cells with CH-11 100 ng/mL, MTT 24 hours; LD50 = concentration that reduces cell viability by 50%
Where a name gives a salt, the structure may show the parent alone.
LD50 (μM) (PPCl, CH-11) by entry:
Quantity kind: LD50 (μM) (PPCl, CH-11) (µM)

INSERT INTO assay_data (compound, test_system, value_units, relation_qualifier, value) VALUES
  ('Br.CC(C)(C)c1cc(C(=O)Cn2c(=N)n(Cc3ccccc3)c3ccccc32)cc(C(C)(C)C)c1O [compound 5657593]', 'PPC-1 cells', 'µM', '=', 3.4),
  ('CC(C)(C)c1cc(C(=O)Cn2c(=N)n(CCN3CCCCC3)c3ccccc32)cc(C(C)(C)C)c1O.Cl [compound 5529457]', 'PPC-1 cells', 'µM', '=', 3.7),
  ('O=C(CCc1ccccc1)Nc1ccc(Cl)cc1C(F)(F)F', 'PPC-1 cells', 'µM', '>', 100),
  ('O=C(CCc1ccccc1)Nc1ccc(Cl)c(C(F)(F)F)c1', 'PPC-1 cells', 'µM', '=', 11),
  ('Cn1c(=N)n(CC(=O)c2cc(C(C)(C)C)c(O)c(C(C)(C)C)c2)c2ccccc21 [compound 5541203, hydrobromide]', 'PPC-1 cells', 'µM', '=', 25.7),
  ('O=C(CCc1ccccc1)Nc1cc(C(F)(F)F)ccc1Cl', 'PPC-1 cells', 'µM', '>', 100),
  ('CC(=O)CC(=O)Nc1cc(C(F)(F)F)ccc1Cl', 'PPC-1 cells', 'µM', '=', 65),
  ('C/C(CC(=O)Nc1ccc(Cl)c(C(F)(F)F)c1)=N\NC(=O)c1cnccn1', 'PPC-1 cells', 'µM', '=', 11);
